Below, each entry is listed alongside its reported TGI.
# Tested on: SK-OV-3 ovarian
# ASSAY_DETAILS: NCI tumour cell line growth inhibition, 48 h

Illustrative cases are given below, each with its answer.
INSERT INTO measurements (compound, reported_value) VALUES
  ('O=C1O[C@@H](c2ccc3c(c2)OCO3)C2C(=O)O[C@@H](c3ccc4c(c3)OCO4)C12 (some centres undefined)', '> 100 µM'),
  ('COC(=O)/C=C/c1cc(OC)c(OC)c(OC)c1', '> 100 µM'),
  ('Cc1c2ncccc2cc2oc3ccccc3c(=O)c12', '> 100 µM');

Here's the next entry for you.
Input: Return reported TGI. Input compound: "O=C1c2cc(Cl)ccc2S(=O)(=O)c2c(NCCCNCCO)nc3ccccc3c21"
Output: 20.9 µM

====

# Tested on: OVCAR-3 ovarian
# ASSAY_DETAILS: NCI tumour cell line growth inhibition, 48 h
READOUT_LABEL: TGI

INSERT INTO assay_data (entry_smiles, reported_value) VALUES
  ('Oc1ccc(NCc2nc3ccccc3[nH]2)cc1', '> 100 µM'),
  ('C[C@]12CC[C@H]3[C@@H](CC=C4C[C@@H](O)CC[C@@]43C)[C@@H]1CC[C@@H]2N(CCO)CCO', '> 100 µM');

Here's the next entry for you.
Input: // fetch TGI for "Brc1cccc(C=NC23CC4CC(CC(C4)C2)C3)c1" ; system: OVCAR-3 ovarian
Output: > 100 µM

====

# Tested on: RXF 393 renal
# ASSAY_DETAILS: NCI tumour cell line growth inhibition, 48 h
READOUT_LABEL: TGI

Illustrative cases are given below, each with its answer.
INSERT INTO results (molecule, reported_value) VALUES
  ('Nc1ccc(S(=O)(=O)Nc2nc3ccccc3nc2N2CCCCC2)cc1', '> 100 µM'),
  ('COc1ccc(/C=C/CN(C)CCc2ccccc2)cc1OC', '> 100 µM'),
  ('CNC(=O)N(CCC#N)[C@H]1CCCC[C@@H]1N(C(=O)NC)c1ccccc1', '> 100 µM');

Input: // fetch TGI for "COC(=O)CN1CCSC1=NC#N" ; system: RXF 393 renal
Output: > 100 µM

Input: // fetch TGI for "O=C(Cc1ccccc1)NN1C(=O)/C(=C\c2ccc([N+](=O)[O-])cc2)SC1=Nc1ccccc1" ; system: RXF 393 renal
Output: > 100 µM

Input: // fetch TGI for "O=C1CCC(=O)N2CCCCN12" ; system: RXF 393 renal
Output: > 100 µM

Input: // fetch TGI for COc1ccc2c(c1)CN1C(=N2)CSC1c1ccccc1Cl (configuration not stated) ; system: RXF 393 renal
Output: 29.7 µM

Input: // fetch TGI for "Cn1c([O-])nc(-n2cc[n+](C)c2)cc1=O" ; system: RXF 393 renal
Output: > 100 µM

====

Below, each entry is listed alongside its reported TGI.
# System: SK-MEL-5 melanoma
# ASSAY_DETAILS: NCI tumour cell line growth inhibition, 48 h

Illustrative cases are given below, each with its answer.
INSERT INTO results (molecule, tested_system, readout_label, reported_value) VALUES
  ('Cn1c([O-])nc(-n2cc[n+](C)c2)cc1=O', 'SK-MEL-5 melanoma', 'TGI', '> 100 µM'),
  ('O=C(O)C(CS)N=c1c2ccccc2n(O)c2ccccc12 (centres undefined)', 'SK-MEL-5 melanoma', 'TGI', '> 100 µM'),
  ('COc1ccc(-c2c(C#N)c(N)nc3c2CCS(=O)(=O)c2ccccc2-3)cc1', 'SK-MEL-5 melanoma', 'TGI', '> 100 µM'),
  ('CCOc1cc(-c2nc3ccccn3c2/N=C/c2cc(Br)ccc2O)ccc1O', 'SK-MEL-5 melanoma', 'TGI', '> 100 µM'),
  ('COC(=O)c1ccc(C=Nc2ccc(S(N)(=O)=O)cc2)cc1', 'SK-MEL-5 melanoma', 'TGI', '> 100 µM');

Input: Return reported TGI. Input molecule: "CCCCN=C(NC#N)NCCCC"
Output: > 100 µM

Input: Return reported TGI. Input molecule: "COC(=O)/C=C/c1cc(OC)c(OC)c(OC)c1"
Output: > 100 µM

Input: Return reported TGI. Input molecule: "COc1cc(/C=C\C(=O)O)ccc1OCc1ccccc1"
Output: > 100 µM

Input: Return reported TGI. Input molecule: "COC(=O)c1c/c(=N\NC(=O)CC(=O)Nc2ccccc2OC)c2ccccc2o1"
Output: > 100 µM

Input: Return reported TGI. Input molecule: "Brc1cc2nn(-c3ccccc3)nc2c2nonc12"
Output: > 100 µM

Input: Return reported TGI. Input molecule: COC(=O)/C(=N/NC(=O)C[N+](C)(C)C)C(C(=O)OC)C(=O)C(=O)Nc1ccc(F)cc1 (centres undefined)
Output: > 100 µM

Input: Return reported TGI. Input molecule: "Cn1c2ccccc2c2c(-c3ccccc3)[n+]3ccncc3nc21"
Output: > 100 µM

Input: Return reported TGI. Input molecule: O=C(O)C(CO)NC(=O)n1c2ccccc2c2ccccc21 (centres undefined)
Output: > 100 µM

Input: Return reported TGI. Input molecule: "O=c1c2cc([N+](=O)[O-])ccc2sc2ccsc12"
Output: > 100 µM

====

# Tested on: SN12C renal
# ASSAY_DETAILS: NCI tumour cell line growth inhibition, 48 h
READOUT_LABEL: TGI

Illustrative cases are given below, each with its answer.
INSERT INTO measurements (molecule, tested_system, reported_value) VALUES
  ('O=C(/C(Br)=C/c1ccccc1)c1ccccc1', 'SN12C renal', '5.85 µM'),
  ('Cc1ccc(NC(=O)c2cccc(N(C)C)c2)cc1NC(=O)c1ccc(O)cc1', 'SN12C renal', '> 100 µM'),
  ('CN1CCN(C)C12C=c1ccccc1=CC21CC1', 'SN12C renal', '> 100 µM'),
  ('C=CCOCCCCC(C(C)=O)C(=O)OC (stereo unspecified)', 'SN12C renal', '> 100 µM'),
  ('Clc1ccc(OCc2nnc(CCCCCCCCc3nnc(COc4ccc(Cl)cc4)n3Nc3ccccc3)n2Nc2ccccc2)cc1', 'SN12C renal', '99 µM');

Input: Return reported TGI. Input molecule: "O=C(Nc1ccccc1C(=O)NCCCO)/C(=C/c1ccccc1O)NC(=O)c1ccccc1"
Output: > 100 µM

Input: Return reported TGI. Input molecule: "Cn1c2ccccc2c2c(-c3ccccc3)[n+]3ccncc3nc21"
Output: > 100 µM

Input: Return reported TGI. Input molecule: CC(C)(C)C1CCC2(CC1)c1[nH]c3ccccc3c1C1(CCC(C(C)(C)C)CC1)c1[nH]c3ccccc3c12 (stereo unspecified)
Output: > 100 µM

Input: Return reported TGI. Input molecule: "CC[CH2][Sn]([CH2]CC)([O]C(=O)c1cccnc1SC)[O][Sn]([CH2]CC)([CH2]CC)[O]C(=O)c1cccnc1SC"
Output: 1.39 µM

Input: Return reported TGI. Input molecule: "NC(N)=NS(=O)(=O)c1ccc(NC(=O)c2ccc3nc4ccccc4c(Nc4ccc(S(=O)(=O)N=C(N)N)cc4)c3c2)cc1"
Output: > 100 µM

====

# Tested on: UACC-62 melanoma
# ASSAY_DETAILS: NCI tumour cell line growth inhibition, 48 h; in the data active = GI50 below about 0.43 µM; inactive = the rest
API: response.call in active, inactive

Some solved cases for reference:
INSERT INTO results (entry_smiles, tested_system, answer_label) VALUES
  ('COc1ccc(-c2cnnc3c(-c4cccc(C(F)(F)F)c4)cnn23)cc1', 'UACC-62 melanoma', 'inactive'),
  ('Nc1cc(N)c2nc(-c3ccccc3)c(Nc3ccc(Cl)c(Cl)c3)nc2c1', 'UACC-62 melanoma', 'inactive'),
  ('O=C1CCCCN1CCCCC#Cc1ccccc1C#Cc1ccc([N+](=O)[O-])cc1', 'UACC-62 melanoma', 'inactive'),
  ('[Cl-].[Dy+3].[O-]/N=C(\c1ccccc1)c1ccccn1.[O-]/N=C(\c1ccccc1)c1ccccn1.[O-]/N=C(\c1ccccc1)c1ccccn1', 'UACC-62 melanoma', 'inactive'),
  ('O=C1c2cc(Cl)ccc2S(=O)(=O)c2c(NCCCNCCO)nc3ccccc3c21', 'UACC-62 melanoma', 'inactive'),
  ('CS(=O)(=O)c1ccc([C@H]2O[C@@H](CO)C[C@]2(O)c2ccc(S(C)(=O)=O)cc2)cc1', 'UACC-62 melanoma', 'inactive');

Input: Please indicate how the test categorized "COc1ccc(/C(COc2c(-c3ccccc3)oc3ccccc3c2=O)=N\O)cc1" .
Output: inactive

Input: Please indicate how the test categorized "CC[CH2][Sn]([CH2]CC)([O]C(=O)c1cccnc1SC)[O][Sn]([CH2]CC)([CH2]CC)[O]C(=O)c1cccnc1SC" .
Output: active

Input: Please indicate how the test categorized "FC(F)(F)c1cccc(Nc2nccc(-c3cnn4nc(-c5ccccc5)ccc34)n2)c1" .
Output: inactive

Input: Please indicate how the test categorized "CN1CCN(C(=O)OCc2nc3c(N4CCOCC4)nc(Cl)nc3n2C)CC1" .
Output: inactive

The reported numbers originate from PubChem BioAssay (NCI).
